# target or test system: Thyrotropin receptor (Homo sapiens) (UniProt P16473)
# Sequence (P16473 whole entry, looked up): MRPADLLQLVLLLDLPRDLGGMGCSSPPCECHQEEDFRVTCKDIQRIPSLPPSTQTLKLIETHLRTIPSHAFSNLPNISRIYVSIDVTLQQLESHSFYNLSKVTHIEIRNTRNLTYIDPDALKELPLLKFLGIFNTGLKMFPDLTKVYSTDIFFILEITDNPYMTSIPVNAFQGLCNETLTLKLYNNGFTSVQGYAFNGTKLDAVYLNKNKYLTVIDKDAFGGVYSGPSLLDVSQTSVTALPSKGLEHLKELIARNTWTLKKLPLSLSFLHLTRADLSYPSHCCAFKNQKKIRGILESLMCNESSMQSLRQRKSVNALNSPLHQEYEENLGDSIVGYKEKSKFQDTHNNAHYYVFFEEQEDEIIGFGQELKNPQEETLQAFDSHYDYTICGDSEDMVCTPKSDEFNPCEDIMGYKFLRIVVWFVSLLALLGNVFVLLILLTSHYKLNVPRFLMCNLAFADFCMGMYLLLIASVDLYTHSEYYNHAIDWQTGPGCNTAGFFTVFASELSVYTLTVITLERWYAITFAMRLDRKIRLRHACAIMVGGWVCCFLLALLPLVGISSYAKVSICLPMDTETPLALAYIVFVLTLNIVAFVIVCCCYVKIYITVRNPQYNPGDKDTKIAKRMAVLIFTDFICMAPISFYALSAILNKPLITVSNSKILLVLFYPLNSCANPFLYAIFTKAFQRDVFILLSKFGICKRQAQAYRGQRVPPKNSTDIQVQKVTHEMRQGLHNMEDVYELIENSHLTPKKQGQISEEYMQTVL
# protocol description: qHTS assay to identify small molecule agonists of the thyroid stimulating hormone receptor (TSHR) signaling pathway (AID 1224843); note: nearly all actives have a fitted effect of over 45% in size
# condition description: TSHR-HEK293 cells, cAMP HTRF, agonist mode, 30 min; series mostly up to 42.5 µM
Records with an inconclusive call do not appear. The source made the active and inactive calls. Calls come from the whole dose curve.
reported property: activation

>  <molecule>
CN1CCC(=C2c3ccccc3CC(=O)c3sccc32)CC1

>  <target or test system>
Thyrotropin receptor (Homo sapiens) (UniProt P16473)

>  <reported property>
activation

>  <result>
inactive

$$$$
>  <molecule>
N[C@H](C(=O)O)c1ccc(O)cc1

>  <target or test system>
Thyrotropin receptor (Homo sapiens) (UniProt P16473)

>  <reported property>
activation

>  <result>
inactive

$$$$
>  <molecule>
C1CN(CCOCCN2CCOCC2)CCO1

>  <target or test system>
Thyrotropin receptor (Homo sapiens) (UniProt P16473)

>  <reported property>
activation

>  <result>
inactive

$$$$
>  <molecule>
O=C1NC(=O)[C@@]2(CCOc3ccc(F)cc32)N1

>  <target or test system>
Thyrotropin receptor (Homo sapiens) (UniProt P16473)

>  <reported property>
activation

>  <result>
inactive

$$$$
>  <molecule>
COC(=O)CC(C)=O

>  <target or test system>
Thyrotropin receptor (Homo sapiens) (UniProt P16473)

>  <reported property>
activation

>  <result>
inactive

$$$$

Entry CS(=O)(=O)O under Thyrotropin receptor (Homo sapiens) (UniProt P16473) had activation of inactive

For the molecule CC(C)(c1ccc(O)cc1)c1ccc(O)cc1 , the measured activation on Thyrotropin receptor (Homo sapiens) (UniProt P16473) was inactive

Value sought: activation, system Thyrotropin receptor (Homo sapiens) (UniProt P16473), item Nc1cc(=O)[nH]c(N)n1 . Result: inactive

Case C=C(C)C(=O)OCCCCCCCC(C)C , Thyrotropin receptor (Homo sapiens) (UniProt P16473), activation recorded as inactive

====

# protocol description: qHTS assay for small molecule disruptors of the mitochondrial membrane potential - cell viability (AID 720634);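 note: human HepG2 liver cancer cells; nearly all actives have a fitted effect of over 20% in size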
# condition description: HepG2 viability, ATP luminescence (CellTiter-Glo), 1 h; series mostly up to 83.2 µM
Results filed as inconclusive are left out. Active and inactive are the calls of the source. Calls come from the whole dose curve.
reported property: activity change, negative = cytotoxicity

Solved cases below.
>  <smiles structure>
COc1ccc2c(c1)c(CC(=O)OCC(=O)O)c(C)n2C(=O)c1ccc(Cl)cc1

>  <activity change, negative = cytotoxicity>
inactive

$$$$
>  <smiles structure>
CC(=O)Nc1c(I)cc(I)c(C(=O)O)c1I

>  <activity change, negative = cytotoxicity>
inactive

$$$$
>  <smiles structure>
Cc1c(NC(C)C)c(=O)n(-c2ccccc2)n1C

>  <activity change, negative = cytotoxicity>
inactive

$$$$
>  <smiles structure>
CCCCCCCCCCCCCCCCC

>  <activity change, negative = cytotoxicity>
inactive

$$$$
>  <smiles structure>
COC(=O)NN

>  <activity change, negative = cytotoxicity>
inactive

$$$$
>  <smiles structure>
CO/N=C(/C(=O)N[C@@H]1C(=O)N2C(C(=O)OCOC(=O)C(C)(C)C)=C(C)CS[C@H]12)c1csc(N)n1

>  <activity change, negative = cytotoxicity>
inactive

$$$$

Query compound follows.
Field activity change, negative = cytotoxicity (entry Cc1c(O)cccc1O ) reads inactive
